Target: BCL2 F104I (Homo sapiens, UniProt P10415, F104I)
Assay: TR-FRET competitive binding assay, BCL2 F104I
Details: Ki determined from IC50, read-out: TR_FRET EKI_Bcl2 F104I
reportedMetric: Ki (nM)

Cc1c(N(C(=O)c2cc(-c3cc4c(cc3C(=O)N3Cc5ccccc5C[C@H]3C)CN(C(=O)Cc3ccc(OCCN5CCOCC5)cc3)CC4)n(C)c2C)c2ccccc2)cc(C#N)n1C [Example 65] | 1.12

A. Cc1c(N(C(=O)c2cc(-c3cc4c(cc3C(=O)N3Cc5ccccc5C[C@H]3C)CN(C(=O)Cc3ccc(OCCN5CCO[C@H](C)C5)cc3)CC4)n(C)c2C)c2ccc(O)cc2)cc(C#N)n1C
B. Cc1c(N(C(=O)c2cc(-c3cc4c(cc3C(=O)N3Cc5ccccc5C[C@H]3C)CN(C(=O)c3cnc(-c5ccccc5)s3)CC4)n(C)c2C)c2ccc(O)cc2)cc(C#N)n1C
Could you point out whether the larger Ki belongs to A or to B ? Identify your pick by its label.
B

====

Tested on: BCL2 G101V
Assay: TR-FRET competitive binding assay, BCL2 G101V
Design: species or system human
Conditions: ratio Ki BCL2 G101V / Ki BCL2 WT
reportedMetric: TR_FRET EKI G101V/WT selectivty ratio

Previously resolved entries follow.
Cc1c(N(C(=O)c2cc(-c3cc4c(cc3C(=O)N3Cc5ccccc5C[C@H]3C)CN(C(=O)Cc3ccc(CCN5CCC(F)(F)CC5)cc3)CC4)n(C)c2C)c2ccc(O)cc2)cc(C#N)n1C | 4.5
Cc1c(C(=O)N(c2ccccc2)c2cnn(C(F)F)c2)cc(-c2cc3c(cc2C(=O)N2Cc4ccccc4C[C@H]2CF)CN(C(=O)Cc2ccc(OCCN4CCOCC4)cc2)CC3)n1C | 72.1
Cc1c(N(C(=O)c2cc(-c3cc4c(cc3C(=O)N3Cc5ccccc5C[C@H]3CN3CCC5(CC3)CC5)CN(C(=O)Cc3ccc(OCCN5CCOCC5)cc3F)CC4)n(C)c2C)c2ccc(O)cc2)cc(C#N)n1C | 5.4
Cc1c(N(C(=O)c2cc(-c3cc4c(cc3C(=O)N3Cc5ccccc5C[C@H]3CN3CCCCC3)CN(C(=O)Cc3ccc(OCCN5CCOC(C)(C)C5)cc3)CC4)n(C)c2C)c2ccc(O)cc2)cc(C#N)n1C | 3.2
Cc1c(C(=O)N(c2ccc(O)cc2)c2cc(C#N)n(CC3CCOC3)c2C)cc(-c2cc3c(cc2C(=O)N2Cc4ccccc4C[C@H]2C)CN(C(=O)Cc2ccc(OCCN4CCOCC4)cc2F)CC3)n1C (single isomer, unassigned) | 5.9

I. Cc1c(N(C(=O)c2cc(-c3cc4c(cc3C(=O)N3Cc5ccccc5C[C@H]3C)CN(C(=O)Cc3ccc(OCCN5CCOCC5)cc3)CC4)n(C)c2C)c2ccc(F)cc2)cc(C#N)n1C
II. Cc1c(N(C(=O)c2cc(-c3cc4c(cc3C(=O)N3Cc5ccccc5C[C@H]3C)CN(C(=O)Cc3ccc(OCCN5CCOCC5)cc3)CC4)n(C)c2C)c2ccc(O)cc2)cnn1C1CCOCC1
III. Cc1c(N(C(=O)c2cc(-c3cc4c(cc3C(=O)N3Cc5ccccc5C[C@H]3CN3CCCCC3)CN(C(=O)Cc3ccc(OCCN(C)CCF)cc3)CC4)n(C)c2C)c2ccc(O)cc2)cc(C#N)n1C
IV. CCn1cc(N(C(=O)c2cc(-c3cc4c(cc3C(=O)N3Cc5ccccc5C[C@H]3C)CN(C(=O)Cc3ccc(OCCN5CCOCC5)cc3)CC4)n(C)c2C)c2ccccc2)c(C)n1
Sort the 4 compounds by TR_FRET EKI G101V/WT selectivty ratio; largest first, smallest last. Form entry: ranked labels (order as requested).
IV, I, II, III
